src = patent US9512220

Answer each item with its documented pIC50.
TARGET_ENTITY: T1, Angiopoietin 1 (UniProt Q15389)
T1 chain: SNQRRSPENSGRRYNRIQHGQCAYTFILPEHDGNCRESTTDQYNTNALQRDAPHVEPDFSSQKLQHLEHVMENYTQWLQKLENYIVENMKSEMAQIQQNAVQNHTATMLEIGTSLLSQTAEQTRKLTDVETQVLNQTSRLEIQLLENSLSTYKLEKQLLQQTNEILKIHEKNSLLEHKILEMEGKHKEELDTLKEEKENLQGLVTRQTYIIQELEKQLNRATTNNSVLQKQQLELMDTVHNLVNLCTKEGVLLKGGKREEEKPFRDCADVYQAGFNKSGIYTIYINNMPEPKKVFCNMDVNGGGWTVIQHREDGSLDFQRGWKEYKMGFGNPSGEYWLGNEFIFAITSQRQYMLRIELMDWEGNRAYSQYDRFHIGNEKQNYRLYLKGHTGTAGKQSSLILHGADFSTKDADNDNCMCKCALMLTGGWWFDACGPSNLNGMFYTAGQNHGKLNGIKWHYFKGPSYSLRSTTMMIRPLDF
PROTOCOL_DESCRIPTION: competition, blocking Tie-2
Please keep in mind that pIC50 is minus log10 of the molar concentration; only the number is needed.

Give the reported pIC50 for this binder. HC12/LC12 (antibody, V domains shown) VH: EVQLLESGGGLVQPGGSLRLSCAASGFTFSNYAMSWVRQAPGKGLEWVSVISPGSGNTYYADSVKGRFTISRDNSKNTLYLQMNSLRAEDTAVYYCAKGALKCRHRSCSSYNAMDVWGQGTLVTVSS VL: QSVLTQPPSASGTPGQRVTISCTGSSSNIGNNDVSWYQQLPGTAPKLLIYDNNHRPSGVPDRFSGSKSGTSASLAISGLRSEDEADYYCGTWDASLNGYVFGGGTKLTVL
9.42

Give the reported pIC50 for this binder. HC8/LC8 (antibody, V domains shown) VH: EVQLLESGGGLVQPGGSLRLSCAASGFTFSNYSMSWVRQAPGKGLEWVSAISPGNGNKYYADSVKGRFTISRDNSKNTLYLQMNSLRAEDTAVYYCAKGLSSLLLVGFDYWGQGTLVTVSS VL: QSVLTQPPSASGTPGQRVTISCSGSSSNIGNNDVSWYQQLPGTAPKLLIYSDSQRPSGVPDRFSGSKSGTSASLAISGLRSEDEADYYCGSWDASLNGYVFGGGTKLTVL
9.68
